Value source: the supplement of paper PMC6555819

Record form. Attribute: PBM binding z-score. Fill in for each entry.
tested on: PPARg:RXRa IVT, anti-PPARg (NR concentration 270 nM, RXRa partner concentration 90 nM); assay: PBM binding z-score (relative to random genomic background probes); higher = stronger binding; sequences stand for … in GC…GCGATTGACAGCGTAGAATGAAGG
Number only, please.

Query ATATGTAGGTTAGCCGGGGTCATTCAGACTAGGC yields PBM binding z-score of 6.89

The recorded PBM binding z-score for entry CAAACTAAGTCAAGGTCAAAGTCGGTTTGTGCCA equals 3.35

Consider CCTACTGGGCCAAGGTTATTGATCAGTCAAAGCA . Its measured PBM binding z-score is 3.58

So for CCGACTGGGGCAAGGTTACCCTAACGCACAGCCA , the logged PBM binding z-score turned out to be 3.74

* * *

system: PPARg:RXRa 30nM:10nM, anti-RXR (NR concentration 30 nM, RXRa partner concentration 10 nM); experiment: PBM binding z-score (relative to random genomic background probes); higher = stronger binding; sequences stand for … in GC…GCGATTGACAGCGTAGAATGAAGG
I'd appreciate it if you could supply PBM binding z-score values for the items below.
Field format: numeric only.

Lab note: measured PBM binding z-score of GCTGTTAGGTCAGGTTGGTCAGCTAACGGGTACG was -0.41

Just so you know, measured PBM binding z-score for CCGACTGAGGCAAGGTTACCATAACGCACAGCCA came out at -0.466

Kindly note the recorded PBM binding z-score for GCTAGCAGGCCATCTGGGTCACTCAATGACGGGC , which is -0.319

According to the records, this sequence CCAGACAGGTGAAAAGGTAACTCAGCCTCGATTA displays PBM binding z-score of 0.682

Record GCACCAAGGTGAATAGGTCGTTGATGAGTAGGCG . Reported PBM binding z-score: 0.404

// field: PBM binding z-score; key: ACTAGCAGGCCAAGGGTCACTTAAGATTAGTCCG ; value = 5.78

Short answer for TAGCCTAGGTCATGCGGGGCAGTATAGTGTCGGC : PBM binding z-score was 0.0404

Form: sequence = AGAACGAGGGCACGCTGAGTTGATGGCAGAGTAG ; PBM binding z-score = 0.228

Looking up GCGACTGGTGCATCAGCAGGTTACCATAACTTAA , I see its PBM binding z-score listed as -0.641

The sequence identified as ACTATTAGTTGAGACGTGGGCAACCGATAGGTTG registered its PBM binding z-score at -0.0556

Entry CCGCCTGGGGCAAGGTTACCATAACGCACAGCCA ; PBM binding z-score = -0.339

Value of measured PBM binding z-score for the entry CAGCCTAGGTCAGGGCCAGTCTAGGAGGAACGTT : -0.591

The sequence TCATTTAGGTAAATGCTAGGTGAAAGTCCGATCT showed PBM binding z-score equal to 3.57

// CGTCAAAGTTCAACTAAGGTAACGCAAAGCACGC : PBM binding z-score value = 2.5

Lab book: PBM binding z-score of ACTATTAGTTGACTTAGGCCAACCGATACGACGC noted as 0.505

Reported PBM binding z-score of TCATACAGGTAAAAGGTGAAAGTCGGTGTGGTAA : 5.73

# PBM binding z-score (sequence: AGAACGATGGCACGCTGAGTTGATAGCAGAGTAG ) is -0.196

The value of PBM binding z-score measured for the sequence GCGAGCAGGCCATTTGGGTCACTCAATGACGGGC turned out to be -0.542

For record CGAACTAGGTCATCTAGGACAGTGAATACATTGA the listed PBM binding z-score is 3.66

Data point: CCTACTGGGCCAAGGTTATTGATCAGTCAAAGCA ; PBM binding z-score = 0.701

* * *

tested on: RARg:RXRa (NR concentration 270 nM, RXRa partner concentration 90 nM); experiment: PBM binding z-score (relative to random genomic background probes); higher = stronger binding; sequences stand for … in GC…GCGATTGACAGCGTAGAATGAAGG
Assign True whenever PBM binding z-score does not fall below 1; assign False whenever it does.

Identify whether the reported PBM binding z-score of the following sequence is 1 or greater: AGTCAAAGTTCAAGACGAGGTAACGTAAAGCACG
True

Determine whether measured PBM binding z-score meets or exceeds 1 for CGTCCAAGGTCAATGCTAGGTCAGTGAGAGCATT
True

Decide: is the reported value of PBM binding z-score for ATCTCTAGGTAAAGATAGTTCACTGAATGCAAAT equal to or greater than 1?
True

Quick check: does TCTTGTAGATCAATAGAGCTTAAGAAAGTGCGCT have PBM binding z-score greater than or equal to 1?
False

Does the reported PBM binding z-score for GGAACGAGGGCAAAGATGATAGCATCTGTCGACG fall at or above the 1 mark?
True

Threshold query (PBM binding z-score >= 1) on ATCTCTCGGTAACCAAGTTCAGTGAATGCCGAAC
False

Does PBM binding z-score meet or surpass 1 for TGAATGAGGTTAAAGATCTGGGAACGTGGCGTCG ?
True

Determine whether measured PBM binding z-score meets or exceeds 1 for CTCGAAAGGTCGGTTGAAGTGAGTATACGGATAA
True

Determine whether measured PBM binding z-score meets or exceeds 1 for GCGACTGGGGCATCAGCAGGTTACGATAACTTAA
False

Does the sequence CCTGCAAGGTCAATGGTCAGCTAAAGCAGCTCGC have recorded PBM binding z-score that is 1 or more?
True

Exam item: decide whether the reported PBM binding z-score for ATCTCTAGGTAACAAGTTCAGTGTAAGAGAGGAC is at least 1.
True

Tell me whether PBM binding z-score is at least 1 here: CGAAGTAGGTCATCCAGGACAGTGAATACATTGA
True

Quick check: does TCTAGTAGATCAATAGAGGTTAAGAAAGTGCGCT have PBM binding z-score greater than or equal to 1?
False

Is PBM binding z-score at least 1? Consider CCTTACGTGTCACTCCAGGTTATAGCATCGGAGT
False

* * *

test system: LXRa:RXRa (NR concentration 270 nM, RXRa partner concentration 90 nM); experiment: PBM binding z-score (relative to random genomic background probes); higher = stronger binding; sequences stand for … in GC…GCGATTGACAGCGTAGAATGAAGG
Short version: PBM binding z-score at least 0.9 is yes, less is no.

Does the reported PBM binding z-score for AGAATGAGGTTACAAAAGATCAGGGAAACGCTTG fall at or above the 0.9 mark?
yes

Determine whether measured PBM binding z-score meets or exceeds 0.9 for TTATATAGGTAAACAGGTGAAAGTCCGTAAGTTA
no

Hi team, for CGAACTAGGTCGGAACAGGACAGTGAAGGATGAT , is the recorded PBM binding z-score at or above 0.9?
no

I'd appreciate it if you could say whether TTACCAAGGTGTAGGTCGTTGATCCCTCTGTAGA has PBM binding z-score at least equal to 0.9.
yes

Would you say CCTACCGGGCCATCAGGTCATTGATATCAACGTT shows PBM binding z-score at minimum 0.9?
yes

Check this sequence for PBM binding z-score at or above 0.9: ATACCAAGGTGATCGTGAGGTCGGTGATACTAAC
no

Reported PBM binding z-score reaches at least 0.9 for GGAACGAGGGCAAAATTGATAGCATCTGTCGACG ?
no

Answer whether PBM binding z-score of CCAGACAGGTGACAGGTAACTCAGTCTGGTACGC is greater than or equal to 0.9.
no

// inclusive: PBM binding z-score at least 0.9? input: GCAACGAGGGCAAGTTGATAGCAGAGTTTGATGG
no

# check: PBM binding z-score of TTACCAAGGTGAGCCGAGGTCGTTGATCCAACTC is greater than or equal to 0.9
yes

Does the reported PBM binding z-score for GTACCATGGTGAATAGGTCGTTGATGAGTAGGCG fall at or above the 0.9 mark?
no

Say whether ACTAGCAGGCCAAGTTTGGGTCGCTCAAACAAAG shows PBM binding z-score of 0.9 or more.
no

Does the sequence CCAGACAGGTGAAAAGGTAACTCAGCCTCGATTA have recorded PBM binding z-score that is 0.9 or more?
no

Hi, just wondering whether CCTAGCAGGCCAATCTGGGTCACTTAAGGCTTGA shows PBM binding z-score of 0.9 or higher.
yes

* * *

Assign PBM binding z-score to each entry below.
system: PPARg DBDmut IVT, anti-PPARg (DBD mutation: PPARg1 K132A/R137A, NR concentration 270 nM); experiment: PBM binding z-score (relative to random genomic background probes); higher = stronger binding; sequences stand for … in GC…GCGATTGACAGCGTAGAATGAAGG
# respond with the number and nothing more

The value of PBM binding z-score measured for the sequence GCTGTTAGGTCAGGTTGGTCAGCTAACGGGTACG turned out to be 0.313

Just so you know, measured PBM binding z-score for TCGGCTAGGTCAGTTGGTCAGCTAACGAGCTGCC came out at -0.778

// PBM binding z-score value for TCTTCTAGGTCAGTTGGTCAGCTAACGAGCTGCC : 3.33

For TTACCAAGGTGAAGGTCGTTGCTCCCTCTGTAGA the sequence record lists PBM binding z-score as 0.0241

Please fill in: PBM binding z-score reported for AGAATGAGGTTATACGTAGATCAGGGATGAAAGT = 0.781

Recorded result, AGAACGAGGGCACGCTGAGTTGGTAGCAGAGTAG , PBM binding z-score: -0.628

get_value(item= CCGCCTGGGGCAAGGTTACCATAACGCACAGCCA , readout=PBM binding z-score) returns -1.46

Recorded PBM binding z-score (sequence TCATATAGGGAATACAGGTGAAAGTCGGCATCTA ): 1.07

What the record says about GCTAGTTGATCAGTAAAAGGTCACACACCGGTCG : PBM binding z-score is 0.272

Consider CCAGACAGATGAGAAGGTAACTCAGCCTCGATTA . Its measured PBM binding z-score is -0.388

Looking up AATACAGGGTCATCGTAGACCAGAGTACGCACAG , I see its PBM binding z-score listed as 0.874

Just so you know, measured PBM binding z-score for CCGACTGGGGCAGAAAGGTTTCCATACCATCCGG came out at -1.79

// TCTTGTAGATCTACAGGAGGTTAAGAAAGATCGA : PBM binding z-score value = 1.12

Kindly note the recorded PBM binding z-score for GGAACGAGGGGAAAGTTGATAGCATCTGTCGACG , which is -1.07

// recorded PBM binding z-score for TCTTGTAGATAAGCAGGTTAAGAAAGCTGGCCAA : -0.186

Lab note: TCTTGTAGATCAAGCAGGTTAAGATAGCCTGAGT gave PBM binding z-score of 0.351

Reported PBM binding z-score for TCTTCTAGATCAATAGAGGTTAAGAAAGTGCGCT was 0.999

response.value for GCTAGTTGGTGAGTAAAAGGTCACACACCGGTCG (field: PBM binding z-score) = 0.663

So for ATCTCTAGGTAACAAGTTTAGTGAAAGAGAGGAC , the logged PBM binding z-score turned out to be 1.38

For this sequence ( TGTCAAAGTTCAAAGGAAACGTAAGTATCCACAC ), measured PBM binding z-score is 1.26

// sample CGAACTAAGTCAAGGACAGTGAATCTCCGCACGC , its PBM binding z-score was -0.249

Per the record, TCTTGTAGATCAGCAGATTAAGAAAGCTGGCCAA has PBM binding z-score of 0.452

For record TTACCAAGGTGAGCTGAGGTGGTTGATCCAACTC the listed PBM binding z-score is -0.991

For record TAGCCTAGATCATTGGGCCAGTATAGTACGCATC the listed PBM binding z-score is -0.32

get_value(item= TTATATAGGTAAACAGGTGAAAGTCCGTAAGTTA , readout=PBM binding z-score) returns 1.83

Given item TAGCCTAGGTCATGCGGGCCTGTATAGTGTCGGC , the value recorded as its PBM binding z-score is -0.309

Memo: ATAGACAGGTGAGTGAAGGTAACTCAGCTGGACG , reported PBM binding z-score: 0.208

Looking up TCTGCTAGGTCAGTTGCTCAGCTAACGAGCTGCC , I see its PBM binding z-score listed as 0.103

PBM binding z-score reported for this sequence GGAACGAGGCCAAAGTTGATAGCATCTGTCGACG : -0.0906

For record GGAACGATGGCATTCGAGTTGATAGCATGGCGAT the listed PBM binding z-score is -0.427

For reference, reported PBM binding z-score for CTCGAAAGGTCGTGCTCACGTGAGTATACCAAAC stands at 0.796

sequence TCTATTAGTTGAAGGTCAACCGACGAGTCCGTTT , PBM binding z-score observed: 0.836

Measured PBM binding z-score, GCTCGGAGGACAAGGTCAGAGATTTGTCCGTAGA : -0.427

Value of PBM binding z-score reported for the sequence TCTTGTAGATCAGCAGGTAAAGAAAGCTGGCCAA is -0.531

# PBM binding z-score (sequence: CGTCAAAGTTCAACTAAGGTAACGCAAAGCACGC ) is 0.408

PBM binding z-score reading for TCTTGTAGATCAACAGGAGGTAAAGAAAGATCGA : 0.824

For reference, reported PBM binding z-score for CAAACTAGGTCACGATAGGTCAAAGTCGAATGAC stands at 2.14
